# Tested on: SK-MEL-5 melanoma
# Procedure Text: NCI tumour cell line growth inhibition, 48 h
Measured Metric: TGI

Incoming: Which TGI is reported for this compound? COc1cc(S(=O)(=O)Nc2ccc(-c3csc(N4C(=O)C(C)SC4c4ccccc4)n3)cc2)ccc1Cl (stereo not drawn)
Outgoing: > 100 µM

Incoming: Which TGI is reported for this compound? Cc1cccc(C(C)C)c1NC(=O)CCl
Outgoing: > 100 µM

Incoming: Which TGI is reported for this compound? OCCn1cc(-c2cnc3nnn(Cc4ccc5ncccc5c4)c3n2)cn1
Outgoing: > 100 µM

###

# maps each entry to its TGI
# Tested on: RXF 393 renal
# Procedure Text: NCI tumour cell line growth inhibition, 48 h

Sample answers from the record:
Incoming: Which TGI is reported for this compound? O=C1CCSC(=S)N1c1ccc(Br)c(Cl)c1
Outgoing: 50.8 µM

Incoming: Which TGI is reported for this compound? O=C(Oc1ccc2c(-c3ccccc3)c(C(=O)Nc3ccc(Cl)cc3)c(=O)oc2c1)c1ccccc1
Outgoing: > 100 µM

---
Incoming: Which TGI is reported for this compound? COc1ccc(Cn2c3ccc([N+](=O)[O-])cc3c(=O)n2Cc2ccccn2)cc1
Outgoing: > 100 µM
